The values you see were collected from PubChem BioAssay (Tox21).

assayMethodText: qHTS assay to identify small molecule agonists of the peroxisome proliferator-activated receptor delta (PPARd) signaling pathway - cell viability counter screen (AID 743211); note: nearly all actives have a fitted effect of over 55% in size
conditionLabel: PPARd-bla HEK293H viability, CellTiter-Glo luminescence, 17 h; series mostly up to 62.6 µM
Records with an inconclusive call do not appear. Active and inactive are the calls of the source. Calls come from the whole dose curve; as a rule, active = well fitted cell-killing curve with a large enough effect in the repeat runs; inconclusive = weak or mixed curves; inactive = no such curve, though single readings can be large or run the other way.
Possible outcomes: 1 for active, 0 for inactive

{"compound": "C=CC(C)(CCC=C(C)C)OC(=O)c1ccccc1 (stereo not drawn)", "groupLabel": 0}
{"compound": "CC(C)CCCC(C)CCO (stereo not drawn)", "groupLabel": 0}
{"compound": "O=C(O)COC(=O)Cc1ccccc1Nc1c(Cl)cccc1Cl", "groupLabel": 0}
{"compound": "CCCCCCCCCC=O", "groupLabel": 0}
{"compound": "Nc1cnn([C@@H]2O[C@H](CO)[C@@H](O)[C@H]2O)c(=O)n1", "groupLabel": 0}
{"compound": "CC(C)c1ccc2c(C(C)C)cc(C(C)C)c(S(=O)(=O)O)c2c1", "groupLabel": 0}
{"compound": "C=CC(=O)OCCOC(=O)CCC(=O)O", "groupLabel": 0}
{"compound": "C1CCC2OC2C1 (stereo not drawn)", "groupLabel": 0}
{"compound": "CCN(CC)CCOC(=O)C1(c2ccccc2)CCCC1", "groupLabel": 0}
{"compound": "CN(C(=O)CCCOc1ccc2[nH]c(=O)ccc2c1)C1CCCCC1", "groupLabel": 0}
{"compound": "CCCCC(CC)COCCCN (stereo not drawn)", "groupLabel": 0}
{"compound": "CN1CCC(OC(c2ccccc2)c2ccccc2)CC1", "groupLabel": 0}
{"compound": "O=C(O)C(c1ccc(Cl)cc1)c1ccc(Cl)cc1", "groupLabel": 0}
{"compound": "CCCC(=O)OCC", "groupLabel": 0}
{"compound": "N#Cc1c(F)cccc1F", "groupLabel": 0}
{"compound": "Cc1occc1S", "groupLabel": 0}
{"compound": "COc1ccccc1OC(=O)Oc1ccccc1OC", "groupLabel": 0}
{"compound": "NC1CCN(c2nc3c(cc2F)c(=O)c(C(=O)O)cn3-c2ccc(F)cc2F)C1 (stereo not drawn)", "groupLabel": 0}
{"compound": "Oc1ccc(Sc2ccc(O)cc2)cc1", "groupLabel": 0}
{"compound": "SC1CCCC1", "groupLabel": 0}
{"compound": "Cc1ccc(C(N)=O)cc1N", "groupLabel": 0}
{"compound": "CCN(CC)CCc1nc(-c2ccccc2)no1", "groupLabel": 0}
{"compound": "C[C@H](CCC(=O)O)[C@H]1CC[C@H]2[C@@H]3[C@H](O)C[C@@H]4C[C@H](O)CC[C@]4(C)[C@H]3CC[C@]12C", "groupLabel": 0}
{"compound": "CN1CCC[C@@H]1c1cccnc1", "groupLabel": 0}
{"compound": "OCC1CC2CC1C1CCC(CO)C21 (stereo not drawn)", "groupLabel": 0}
{"compound": "O=c1[nH]cnc2ccccc12", "groupLabel": 0}
{"compound": "CC[C@]12CCCN3CCc4c(n(c5ccccc45)C(=O)C1)[C@@H]32", "groupLabel": 0}
{"compound": "O=C(Nc1ccccc1)OCC(CN1CCCCC1)OC(=O)Nc1ccccc1 (stereo not drawn)", "groupLabel": 1}

###

assayMethodText: Caspase-3/7 induction in CHO-K1 cells by small molecules, qHTS assay (AID 1346980); note: nearly all actives have a fitted effect of over 15% in size
conditionLabel: CHO-K1 caspase-3/7 induction, Caspase-Glo luminescence, 17 h; series mostly up to 92.4 µM
Excerpt: National Center for Advancing Translational Sciences [NCATS] NIH Chemical Genomics Center [NCGC] U.S. Environmental Protection Agency [EPA] National Institutes of Environmental Health Sciences [NIEHS] National Toxicology Program [NTP] Apoptosis is a process of programmed cell death and plays a central role in the development of multicellular organisms. […]
Active and inactive are the calls of the source. The call rests on the fitted dose curve; in most records, active means well fitted activation curve with a large enough effect in the repeat runs; inconclusive means weak or mixed curves; inactive means flat fitted curve, though single readings scatter.

{"molecule": "O=S(=O)(O)c1ccc(O)c2ncccc12", "caspase-3/7 activation": "inactive"}
{"molecule": "O=C(O)/C=C/c1cnc[nH]1", "caspase-3/7 activation": "inactive"}
{"molecule": "CN1CCN(C2=Nc3ccccc3Sc3ccc(Cl)cc32)CC1", "caspase-3/7 activation": "inactive"}
{"molecule": "Cn1sccc1=O", "caspase-3/7 activation": "inactive"}
{"molecule": "O=C(Nc1ccccc1)OCC(CN1CCCCC1)OC(=O)Nc1ccccc1 (stereo not drawn)", "caspase-3/7 activation": "inactive"}
{"molecule": "N#CCc1cccc(C(F)(F)F)c1", "caspase-3/7 activation": "inactive"}
{"molecule": "CCCOc1ccc2nc(NC(=O)OC)[nH]c2c1", "caspase-3/7 activation": "inactive"}
{"molecule": "CC(=O)N(O)CCCCCNC(=O)CCC(=O)N(O)CCCCCNC(=O)CCC(=O)N(O)CCCCCN", "caspase-3/7 activation": "inactive"}
{"molecule": "CCOC(=O)C1=NN(c2ccccc2)C(=O)C1", "caspase-3/7 activation": "inactive"}
{"molecule": "COc1ccc(OC)c(OC)c1", "caspase-3/7 activation": "inactive"}
{"molecule": "Nc1cnn([C@@H]2O[C@H](CO)[C@@H](O)[C@H]2O)c(=O)n1", "caspase-3/7 activation": "inactive"}
{"molecule": "CCCCCCCCCO", "caspase-3/7 activation": "inactive"}
{"molecule": "CC1(C)CCC(C)(C)c2cc(NC(=O)c3ccc(C(=O)O)cc3)ccc21", "caspase-3/7 activation": "inactive"}

###

measuredTarget: Cytochrome P450 2D6 (Homo sapiens) (UniProt P10635)
Sequence (P10635 whole entry, looked up): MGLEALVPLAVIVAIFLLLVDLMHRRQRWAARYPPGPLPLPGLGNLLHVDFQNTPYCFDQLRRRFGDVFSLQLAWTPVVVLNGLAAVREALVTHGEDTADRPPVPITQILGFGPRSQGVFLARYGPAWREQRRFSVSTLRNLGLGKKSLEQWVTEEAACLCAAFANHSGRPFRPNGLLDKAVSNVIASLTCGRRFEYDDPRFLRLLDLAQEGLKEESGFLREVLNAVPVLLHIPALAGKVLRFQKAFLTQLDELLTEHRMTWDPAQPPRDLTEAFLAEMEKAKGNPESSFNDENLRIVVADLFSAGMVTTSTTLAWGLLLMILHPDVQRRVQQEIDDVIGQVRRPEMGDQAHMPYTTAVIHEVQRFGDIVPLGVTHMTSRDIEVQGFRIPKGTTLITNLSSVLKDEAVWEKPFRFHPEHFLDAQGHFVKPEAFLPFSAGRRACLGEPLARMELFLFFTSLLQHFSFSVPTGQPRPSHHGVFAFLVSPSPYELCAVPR
assayMethodText: Cytochrome P450 Family 2 Subfamily D Member 6 (CYP2D6) small molecule antagonists: luciferase reporter qHTS assay (AID 1671196); note: nearly all actives have a fitted effect of over 50% in size
conditionLabel: P450-Glo CYP2D6 enzyme assay, luciferin luminescence, 1 h; series mostly up to 115 µM
Results filed as inconclusive are left out. Active and inactive are the calls of the source. Calls follow the shape of the dose curve; as a rule, active = well fitted inhibition curve with a large enough effect in the repeat runs; inconclusive = weak or mixed curves; inactive = no such curve, though single readings can be large or run the other way.
Possible outcomes: active, inactive

{"compound": "NC(N)=N/N=C/c1c(Cl)cccc1Cl", "groupLabel": "active"}
{"compound": "CNS(=O)(=O)Cc1ccc2[nH]cc(CCN(C)C)c2c1", "groupLabel": "active"}
{"compound": "CCCCCC/C=C/C=O", "groupLabel": "inactive"}
{"compound": "NC(N)=NN=C(/C=C/c1ccc([N+](=O)[O-])o1)/C=C/c1ccc([N+](=O)[O-])o1", "groupLabel": "active"}
{"compound": "COc1cc(C(C)(C)C)c(O)c(C(C)(C)C)c1", "groupLabel": "inactive"}
{"compound": "CCN(CC)C(C)CN1c2ccccc2Sc2ccccc21 (stereo unspecified)", "groupLabel": "active"}

###

assayMethodText: Caspase-3/7 induction in CHO-K1 cells by small molecules, qHTS cell viability counter screen (AID 1346979); note: nearly all actives have a fitted effect of over 35% in size
conditionLabel: CellTiter-Fluor fluorescence, 17 h; series mostly up to 92.4 µM
Inconclusive results are not listed. Active and inactive are the calls of the source. Calls follow the shape of the dose curve; as a rule, active = well fitted cell-killing curve with a large enough effect in the repeat runs; inconclusive = weak or mixed curves, or effect the other way; inactive = no such curve, though single readings can be large or run the other way.
Possible outcomes: active, inactive

{"compound": "CC(=O)SCc1ccco1", "groupLabel": "inactive"}
{"compound": "O=C1CCCCCO1", "groupLabel": "inactive"}
{"compound": "CC(C)CC=O", "groupLabel": "inactive"}
{"compound": "CNCC[C@@H](Oc1ccccc1C)c1ccccc1", "groupLabel": "inactive"}
{"compound": "CCN(CC)C(C)=O", "groupLabel": "inactive"}
{"compound": "CC1CCc2cc(F)cc3c(=O)c(C(=O)O)cn1c23 (stereo not drawn)", "groupLabel": "inactive"}
{"compound": "CCOc1nc2cccc(C(=O)O)c2n1Cc1ccc(-c2ccccc2-c2nn[nH]n2)cc1", "groupLabel": "inactive"}
{"compound": "Cc1cc(CC(=O)O)c(C)n1-c1ccc(Cl)cc1", "groupLabel": "inactive"}
{"compound": "Cc1ccc2c(ccc3ccccc32)c1", "groupLabel": "inactive"}
{"compound": "CC(C)c1cccc(C(C)C)c1NC(=O)NS(=O)(=O)c1cc(C(C)(C)O)co1", "groupLabel": "inactive"}
{"compound": "O=C(O)[C@@H]1[C@H]2C[C@H]3c4[nH]c5ccccc5c4CCN3C[C@@H]2CC[C@@H]1O", "groupLabel": "inactive"}
{"compound": "CC(C)NCC(O)COc1ccc(CC(N)=O)cc1 (stereo not drawn)", "groupLabel": "inactive"}
{"compound": "Cc1cc(O)ccc1N", "groupLabel": "active"}

###

measuredTarget: Estrogen receptor (Homo sapiens)
assayMethodText: qHTS assay to identify small molecule agonists of the estrogen receptor alpha (ER-alpha) signaling pathway (AID 743075);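 note: HEK293 GripTite cells with ER-alpha and UAS-driven beta-lactamase reporter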; note: potency is the fitted concentration of half-maximal effect
conditionLabel: HEK293 ER-alpha-UAS-bla, beta-lactamase FRET ratio, 18 h; series mostly up to 70.1 µM
The source made the active and inactive calls. Calls come from the whole dose curve.

{"molecule": "CC(C)(C)c1cc(O)c(C(C)(C)C)cc1O", "Potency": "inactive"}
{"molecule": "Cc1cccc(OCCOc2cccc(C)c2)c1", "Potency": "inactive"}
{"molecule": "O=c1[nH]cnc2ccccc12", "Potency": "inactive"}
{"molecule": "NC(N)=N/N=C/c1c(Cl)cccc1Cl", "Potency": "inactive"}
{"molecule": "CCOc1cc(OCC)c(C(=O)CCC(=O)O)cc1OCC", "Potency": "inactive"}
{"molecule": "CCC(C)N(C)C(=O)c1cc2ccccc2c(-c2ccccc2Cl)n1 (configuration not stated)", "Potency": "inactive"}
{"molecule": "CCCCCCCCN(C)C", "Potency": "inactive"}
{"molecule": "FC(F)(F)C(F)(F)C(F)(F)C(F)(F)C(F)(F)C(F)(F)CCI", "Potency": "inactive"}
{"molecule": "CCCCOC(=O)c1ccccc1C(=O)OCC(CC)CCCC (configuration not stated)", "Potency": "inactive"}
{"molecule": "O=C(O)C(c1ccc(Cl)cc1)c1ccc(Cl)cc1", "Potency": "inactive"}
{"molecule": "Cc1cccc(Oc2ccccc2)c1", "Potency": "inactive"}
{"molecule": "CN1CCC(=C2c3ccccc3CCc3sccc32)CC1", "Potency": "inactive"}
{"molecule": "CCCCCCc1ccc(N)cc1", "Potency": "inactive"}
{"molecule": "CC(=O)/C(C)=C/C1C(C)=CCCC1(C)C (configuration not stated)", "Potency": "inactive"}
{"molecule": "CCOC(=O)C1=C(C)NC(C)=C(C(=O)OC)C1c1cccc([N+](=O)[O-])c1 (configuration not stated)", "Potency": "inactive"}
{"molecule": "COC(=O)C(C)=O", "Potency": "inactive"}
{"molecule": "CCCC(=O)OCC", "Potency": "inactive"}
{"molecule": "CCOc1nc2cccc(C(=O)O)c2n1Cc1ccc(-c2ccccc2-c2nn[nH]n2)cc1", "Potency": "inactive"}
{"molecule": "C=Cc1c(C)c2cc3[nH]c(cc4nc(cc5nc(cc1[nH]2)C(C)=C5CCC(=O)O)C(CCC(=O)O)=C4C)c(C)c3C=C", "Potency": "4.25 µM [inconclusive] (active)"}
{"molecule": "COCCO", "Potency": "inactive"}
{"molecule": "C=CC(=O)OCC(C)OCC(C)OCC(C)OC(=O)C=C (configuration not stated)", "Potency": "61.7 µM [activator] (active)"}
{"molecule": "c1ccc(OCc2ccc(CCCN3CCOCC3)cc2)cc1", "Potency": "inactive"}
{"molecule": "OCC1CC2CC1C1CCC(CO)C21 (configuration not stated)", "Potency": "inactive"}
{"molecule": "COC(Cc1ccccc1)OC", "Potency": "inactive"}
{"molecule": "CC(=O)N(O)CCCCCNC(=O)CCC(=O)N(O)CCCCCNC(=O)CCC(=O)N(O)CCCCCN", "Potency": "inactive"}
{"molecule": "CC(=O)[C@@]1(O)CC[C@H]2[C@@H]3C[C@H](C)C4=CC(=O)CC[C@]4(C)[C@H]3CC[C@@]21C", "Potency": "inactive"}
{"molecule": "c1ccc(CNCc2ccccc2)cc1", "Potency": "inactive"}
